- study.target: Integrin alpha-IIb/beta-3 (Homo sapiens, UniProt P05106+P08514)
- Sequence (P05106 27-788 limits assumed): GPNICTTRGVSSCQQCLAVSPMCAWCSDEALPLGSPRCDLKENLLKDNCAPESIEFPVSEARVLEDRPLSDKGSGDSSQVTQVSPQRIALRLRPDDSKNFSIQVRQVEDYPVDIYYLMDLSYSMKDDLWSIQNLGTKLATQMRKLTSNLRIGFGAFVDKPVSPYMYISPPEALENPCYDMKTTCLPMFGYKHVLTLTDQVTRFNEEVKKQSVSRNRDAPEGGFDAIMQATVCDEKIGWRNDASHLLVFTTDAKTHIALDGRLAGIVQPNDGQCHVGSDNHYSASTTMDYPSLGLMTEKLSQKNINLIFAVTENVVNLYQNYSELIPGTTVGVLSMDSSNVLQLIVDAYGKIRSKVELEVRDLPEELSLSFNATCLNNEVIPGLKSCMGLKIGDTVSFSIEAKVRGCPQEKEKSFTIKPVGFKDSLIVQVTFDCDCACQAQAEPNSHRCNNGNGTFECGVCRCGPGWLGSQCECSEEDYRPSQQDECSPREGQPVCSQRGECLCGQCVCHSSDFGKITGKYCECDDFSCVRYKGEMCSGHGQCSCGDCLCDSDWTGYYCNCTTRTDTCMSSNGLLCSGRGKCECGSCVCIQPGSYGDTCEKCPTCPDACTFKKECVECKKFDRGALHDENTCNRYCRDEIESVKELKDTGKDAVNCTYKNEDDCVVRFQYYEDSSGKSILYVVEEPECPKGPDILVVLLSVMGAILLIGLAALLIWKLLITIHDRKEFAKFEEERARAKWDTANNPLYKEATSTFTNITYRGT
- Sequence (P08514 32-887 limits assumed): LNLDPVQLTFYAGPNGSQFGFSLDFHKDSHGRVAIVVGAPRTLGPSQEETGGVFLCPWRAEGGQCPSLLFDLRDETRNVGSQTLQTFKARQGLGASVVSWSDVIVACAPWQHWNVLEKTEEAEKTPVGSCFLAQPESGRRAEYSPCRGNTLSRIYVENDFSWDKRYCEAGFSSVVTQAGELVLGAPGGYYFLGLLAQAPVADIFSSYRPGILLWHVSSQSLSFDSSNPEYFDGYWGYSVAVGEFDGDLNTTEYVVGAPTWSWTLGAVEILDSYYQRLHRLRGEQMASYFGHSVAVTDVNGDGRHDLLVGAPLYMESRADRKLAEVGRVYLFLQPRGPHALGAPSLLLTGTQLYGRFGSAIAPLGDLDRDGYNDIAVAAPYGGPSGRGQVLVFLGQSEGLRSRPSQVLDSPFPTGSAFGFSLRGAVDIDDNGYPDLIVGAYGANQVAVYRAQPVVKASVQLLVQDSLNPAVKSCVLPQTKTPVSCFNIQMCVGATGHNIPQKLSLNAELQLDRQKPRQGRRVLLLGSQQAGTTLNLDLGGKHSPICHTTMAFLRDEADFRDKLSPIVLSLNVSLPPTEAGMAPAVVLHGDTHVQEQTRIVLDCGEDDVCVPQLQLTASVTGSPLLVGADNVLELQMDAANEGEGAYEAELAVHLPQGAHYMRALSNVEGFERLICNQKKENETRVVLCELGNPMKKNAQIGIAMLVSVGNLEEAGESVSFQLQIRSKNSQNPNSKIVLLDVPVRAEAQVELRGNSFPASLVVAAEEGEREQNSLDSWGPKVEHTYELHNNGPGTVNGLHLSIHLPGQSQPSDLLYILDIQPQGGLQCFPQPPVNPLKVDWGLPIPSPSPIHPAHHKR
- Sequence (P08514 891-1039 limits assumed): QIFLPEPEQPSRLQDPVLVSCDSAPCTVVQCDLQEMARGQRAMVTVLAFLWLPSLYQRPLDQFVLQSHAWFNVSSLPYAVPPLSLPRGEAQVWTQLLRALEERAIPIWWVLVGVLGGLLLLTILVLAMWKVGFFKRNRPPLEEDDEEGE
- test.details: Inhibition of [3H]-SKF- 107260 binding to purified GPIIb/IIIa from human platelets reconstituted in liposomes
property: pKi
Please express pKi as -log10 of the molar concentration.

The compound listed as CC(=O)N[C@H]1CSSC(C)(C)[C@@H](C(N)=O)NC(=O)[C@H](CC(=O)O)NC(=O)CNC(=O)[C@H](CCCN=C(N)N)N(C)C1=O shows pKi equal to 6.99

====

- study.target: Integrin alpha-IIb/beta-3 (Homo sapiens, UniProt P05106+P08514)
- test.details: Tested for inhibition of fibrinogen binding to purified GPIIb/IIIa isolated from human platelets and reconstituted in liposomes
Starred links: 1 amine or outer side, 2 acyl side, 3 side chain; linkers in the order of their positions; H or OH if unused. Positions of bridges follow the written chain, without caps; N, C: chain ends. Non-standard residues stand in square brackets, D forms with d. Residues, ends and D or L forms follow the SMILES beside them. X1 = O=C([C@@H](N[*:1])[C@H](S[*:3])c1ccccc1)[*:2]; NMeR = CN[C@@H](CCCNC(=N)N)C(=O)O
Please respond with reported Ki for every item in the list.
Reply with just the number (in nM).

Quick note, Ki for CC(=O)N[C@H]1CSSC(C)(C)[C@@H](C(N)=O)NC(=O)[C@H](CC(=O)O)NC(=O)CN(C)C(=O)[C@H](CCCN=C(N)N)NC1=O (single isomer, unassigned) landed at 1250

Sample CC(=O)N[C@H]1CSS[C@H](c2ccccc2)[C@@H](C(N)=O)NC(=O)[C@H](CC(=O)O)NC(=O)CNC(=O)[C@H](CCCN=C(N)N)N(C)C1=O (Ac-C[NMeR]GD[X1]-NH2; disulfide 1-5) ; Ki observed: 125

Ki for CC(=O)N[C@@H]1CSSC(C)(C)[C@H](C(N)=O)NC(=O)[C@@H](CC(=O)O)NC(=O)CNC(=O)[C@H](CCCN=C(N)N)N(C)C1=O is 82

====

- study.target: Integrin alpha-IIb/beta-3 (Homo sapiens, UniProt P05106+P08514)
- test.details: Tested for inhibition of fibrinogen binding to purified GPIIb/IIIa isolated from human platelets and reconstituted in liposomes
pKi: −log10 of the molar value.
property: pKi

CC(=O)N[C@H]1CSSC(C)(C)[C@@H](C(N)=O)NC(=O)[C@H](CC(=O)O)NC(=O)CNC(=O)[C@H](CCCNC(=N)N)N(C)C(=O)[C@@H]2CCCN2C1=O yielded pKi of < 5.00

Sample CC(=O)N[C@@H]1CSSC(C)(C)[C@H](C(N)=O)NC(=O)[C@@H](CC(=O)O)NC(=O)CNC(=O)[C@@H](CCCN=C(N)N)N(Cc2ccccc2)C1=O ; pKi observed: < 4.00

Please fill in: pKi reported for CC(=O)N[C@@H]1CSSC(C)(C)[C@H](C(N)=O)NC(=O)[C@H](CC(=O)O)NC(=O)CNC(=O)[C@@H](CCCNC(=N)N)NC1=O = < 3.00
